assay.target: Rat Kidney Medullary V2 Receptors (Rattus norvegicus, UniProt Q00788)
Construct: Medullary tissues from rat kidneys are dissected out; from tissue; host or cells: rat kidney medulla membranes
Sequence (Q00788 whole entry): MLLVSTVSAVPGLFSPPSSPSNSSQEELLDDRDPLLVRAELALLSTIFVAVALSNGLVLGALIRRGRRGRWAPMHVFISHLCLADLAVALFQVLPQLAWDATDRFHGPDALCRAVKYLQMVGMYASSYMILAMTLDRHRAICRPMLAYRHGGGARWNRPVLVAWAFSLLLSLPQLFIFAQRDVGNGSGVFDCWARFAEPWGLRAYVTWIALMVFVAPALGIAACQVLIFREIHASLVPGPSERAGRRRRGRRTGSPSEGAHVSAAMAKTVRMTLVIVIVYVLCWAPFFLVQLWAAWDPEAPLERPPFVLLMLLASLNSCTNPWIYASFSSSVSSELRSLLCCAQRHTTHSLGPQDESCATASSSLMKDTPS
experiment.description: Binding Assay to Rat Kidney Medullary V2 Receptors
measurement.setup: rat kidney medulla membranes; read-out: V2 IC50
Listing: IC50 of selected molecules

[
  {
    "molecule": "O=C(Cc1ccccc1F)Nc1ccc(C(=O)N2Cc3cccn3Cc3ccccc32)cc1",
    "IC50 [nM]": 17
  },
  {
    "molecule": "CN(C)C(C(=O)Nc1ccc(C(=O)N2Cc3cccn3Cc3ccccc32)cc1)c1ccccc1 (stereo not shown)",
    "IC50 [nM]": 230
  },
  {
    "molecule": "Cc1c(F)cccc1C(=O)Nc1ccc(C(=O)N2Cc3cccn3Cc3ccccc32)cc1",
    "IC50 [nM]": 4
  },
  {
    "molecule": "CN(C)CN(C(=O)c1ccc(Cl)cc1Cl)c1ccc(C(=O)N2Cc3cccn3Cc3ccccc32)cc1",
    "IC50 [nM]": 5
  }
]

====

assay.target: oxytocin receptors (Rattus norvegicus)
Construct: The uteri are dissected out, cleaned of fat and connective tissues; from tissue; host or cells: uterus of DES-treated female Sprague-Dawley rats
Sequence (P70536 1-388): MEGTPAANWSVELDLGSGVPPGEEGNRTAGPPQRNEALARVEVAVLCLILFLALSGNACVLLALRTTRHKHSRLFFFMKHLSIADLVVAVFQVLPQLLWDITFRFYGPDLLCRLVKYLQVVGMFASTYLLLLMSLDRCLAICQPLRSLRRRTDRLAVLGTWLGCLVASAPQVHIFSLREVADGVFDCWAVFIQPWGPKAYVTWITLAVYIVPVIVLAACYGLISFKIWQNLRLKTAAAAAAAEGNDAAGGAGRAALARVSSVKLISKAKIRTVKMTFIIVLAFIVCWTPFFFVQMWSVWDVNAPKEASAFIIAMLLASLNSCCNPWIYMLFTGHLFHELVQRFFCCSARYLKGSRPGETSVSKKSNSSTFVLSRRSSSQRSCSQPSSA
experiment.description: Oxytocin Receptor Binding
measurement.setup: dose 10 μM, [3H]oxytocin

[
  {
    "compound": "O=C(Nc1ccc(C(=O)N2Cc3cccn3Cc3ccccc32)cc1)c1ccc(Cl)cc1Cl",
    "inhibition at 10 µM / %": 92
  },
  {
    "compound": "CCOC(=O)c1ccc2n1Cc1ccccc1N(C(=O)c1ccc(N)cc1)C2",
    "inhibition at 10 µM / %": 71
  },
  {
    "compound": "O=C(Nc1ccc(C(=O)N2Cc3cccn3Cc3ccccc32)cc1)C(Cl)c1ccccc1 (centres unmarked)",
    "inhibition at 10 µM / %": 61
  },
  {
    "compound": "Cc1ccccc1CC(=O)Nc1ccc(C(=O)N2Cc3cccn3Cc3ccccc32)cc1",
    "inhibition at 10 µM / %": 87
  },
  {
    "compound": "CSc1ccccc1C(=O)Nc1ccc(C(=O)N2Cc3cccn3Cc3ccccc32)cc1",
    "inhibition at 10 µM / %": 98
  },
  {
    "compound": "Cc1c(F)cccc1C(=O)Nc1ccc(C(=O)O)cc1",
    "inhibition at 10 µM / %": 39
  },
  {
    "compound": "O=C(Nc1ccc(C(=O)N2Cc3cccn3Cc3ccccc32)cc1)c1ccccc1Cl",
    "inhibition at 10 µM / %": 97
  },
  {
    "compound": "NC(=O)CNC(C(=O)Nc1ccc(C(=O)N2Cc3cccn3Cc3ccccc32)cc1)c1ccccc1 (centres unmarked)",
    "inhibition at 10 µM / %": 70
  },
  {
    "compound": "Cc1ccccc1C(=O)Nc1ccc(C(=O)N2CCc3nncn3-c3ccccc32)cc1",
    "inhibition at 10 µM / %": 18
  },
  {
    "compound": "O=C(c1ccc([N+](=O)[O-])cc1Cl)N1Cc2ccc(C(=O)C(F)(F)F)n2Cc2ccccc21",
    "inhibition at 10 µM / %": 36
  },
  {
    "compound": "Cc1cccc(C(=O)Nc2ccc(C(=O)N3Cc4cccn4-c4ccccc43)cc2)c1C",
    "inhibition at 10 µM / %": 67
  },
  {
    "compound": "CCOC(=O)c1ccc2n1Cc1ccccc1N(C(=O)c1ccc(NC(=O)c3ccc(Cl)cc3Cl)cc1)C2",
    "inhibition at 10 µM / %": 86
  },
  {
    "compound": "CSc1ccccc1C(=O)Nc1ccc(C(=O)N2Cc3cccn3Cc3ccccc32)c(Cl)c1",
    "inhibition at 10 µM / %": 84
  },
  {
    "compound": "O=C(Nc1ccc(C(=O)N2Cc3ccc(Cl)n3Cc3ccccc32)cc1)c1ccc(Cl)cc1Cl",
    "inhibition at 10 µM / %": 94
  },
  {
    "compound": "Cc1ccc(F)cc1C(=O)Nc1ccc(C(=O)N2Cc3cccn3Cc3ccccc32)c(Cl)c1",
    "inhibition at 10 µM / %": 97
  },
  {
    "compound": "Cc1ccccc1C(=O)Nc1ccc(C(=O)N2Cc3cccn3Cc3ccccc32)cc1Cl",
    "inhibition at 10 µM / %": 99
  },
  {
    "compound": "O=C(Nc1ccc(C(=O)N2Cc3ccc(C(=O)C(Cl)(Cl)Cl)n3Cc3ccccc32)cc1)c1ccc(Cl)cc1Cl",
    "inhibition at 10 µM / %": 2
  },
  {
    "compound": "COC(=O)c1ccc2n1Cc1ccccc1N(C(=O)c1ccc(NC(=O)c3ccc(Cl)cc3Cl)cc1)C2",
    "inhibition at 10 µM / %": 82
  },
  {
    "compound": "O=C(Nc1ccc(C(=O)N2Cc3ccc(C(=O)C(Cl)(Cl)Cl)n3Cc3ccccc32)cc1)c1ccccc1C(F)(F)F",
    "inhibition at 10 µM / %": 42
  },
  {
    "compound": "Cc1ccc(F)cc1C(=O)Nc1ccc(C(=O)O)cc1Cl",
    "inhibition at 10 µM / %": 32
  },
  {
    "compound": "O=C(c1ccc([N+](=O)[O-])cc1Cl)N1Cc2ccc(C(=O)C(Cl)(Cl)Cl)n2Cc2ccccc21",
    "inhibition at 10 µM / %": 22
  },
  {
    "compound": "Cc1ccccc1C(=O)Nc1ccc(C(=O)O)cc1Cl",
    "inhibition at 10 µM / %": 12
  },
  {
    "compound": "O=C(Nc1ccc(C(=O)N2Cc3cccn3Cc3ccccc32)c(Cl)c1)c1ccccc1Cl",
    "inhibition at 10 µM / %": 97
  },
  {
    "compound": "Cc1ccccc1C(=O)Nc1c(C)cc(C(=O)N2Cc3cccn3Cc3ccccc32)cc1C",
    "inhibition at 10 µM / %": 0
  },
  {
    "compound": "O=C(Nc1ccc(C(=O)N2Cc3ccc(C(=O)C(F)(F)F)n3Cc3ccccc32)cc1)c1ccccc1C(F)(F)F",
    "inhibition at 10 µM / %": 19
  },
  {
    "compound": "CN(C)C(C(=O)Nc1ccc(C(=O)N2Cc3cccn3Cc3ccccc32)cc1)c1ccccc1 (centres unmarked)",
    "inhibition at 10 µM / %": 61
  },
  {
    "compound": "Cc1c(F)cccc1C(=O)Nc1ccc(C(=O)N2Cc3cccn3Cc3ccccc32)cc1Cl",
    "inhibition at 10 µM / %": 91
  },
  {
    "compound": "O=C(Nc1ccc(C(=O)N2Cc3cccn3Cc3ccccc32)c(Cl)c1)c1ccccc1C(F)(F)F",
    "inhibition at 10 µM / %": 90
  },
  {
    "compound": "Cc1cc(C(=O)N2Cc3ccc(C(=O)C(Cl)(Cl)Cl)n3Cc3ccccc32)ccc1[N+](=O)[O-]",
    "inhibition at 10 µM / %": 11
  },
  {
    "compound": "Cc1cc(C(=O)O)cc(C)c1NC(=O)c1ccc(Cl)cc1Cl",
    "inhibition at 10 µM / %": 19
  },
  {
    "compound": "O=C(Nc1ccc(C(=O)N2Cc3cccn3Cc3ccccc32)cc1)c1cccc(C(F)(F)F)c1",
    "inhibition at 10 µM / %": 18
  },
  {
    "compound": "O=Cc1ccc2n1Cc1ccccc1N(C(=O)c1ccc(NC(=O)c3ccc(Cl)cc3Cl)cc1)C2",
    "inhibition at 10 µM / %": 79
  }
]
